These entries and their values trace back to ChEMBL document CHEMBL1144604.

molecular target: Autotaxin (Homo sapiens) (UniProt Q13822); experiment: Inhibition of human recombinant ATX at 100 uM after 16 hrs; values are per cent of control
endpoint-label: residual activity (%)

{"molecule": "CCCCCCCCCCCCCCCC(=O)N[C@@H](Cc1ccc(OCc2ccccn2)cc1)C(O)CP(=O)(O)O (single isomer, unassigned; diastereomer b)", "measured-target": "Autotaxin (Homo sapiens) (UniProt Q13822)", "residual activity / %": 65}
{"molecule": "CCCCCCCCCCCCCCCC(=O)N[C@H](Cc1ccc(OCCC(C)C)cc1)C(O)CP(=O)(O)O (single isomer, unassigned; diastereomer b)", "measured-target": "Autotaxin (Homo sapiens) (UniProt Q13822)", "residual activity / %": 94}
{"molecule": "CCCCCCCCCCCCCCCC(=O)N[C@@H](Cc1ccc(OCCC(C)C)cc1)C(=O)CP(=O)(O)O", "measured-target": "Autotaxin (Homo sapiens) (UniProt Q13822)", "residual activity / %": 85}
{"molecule": "CCCCCCCCCCCCCCCC(=O)N[C@@H](Cc1ccc(OCCC)cc1)C(O)CP(=O)(O)O (single isomer, unassigned; diastereomer b)", "measured-target": "Autotaxin (Homo sapiens) (UniProt Q13822)", "residual activity / %": 83}

====

molecular target: UniProtKB Q13822; experiment: Inhibition of human recombinant ATX at 100 uM after 16 hrs; values are per cent of control
endpoint-label: residual activity (%)

Before answering, review these 5 worked examples.
{"compound": "CCCCCCCCCCCCCCCC(=O)N[C@H](Cc1ccc(OCCC(C)C)cc1)C(=O)CP(=O)(O)O", "units-of-measure": "%", "result-value": 76}
{"compound": "CCCCCCCCCCCCCCCC(=O)N[C@H](Cc1ccc(OCc2ccccc2)cc1)C(O)CP(=O)(O)O (single isomer, unassigned; diastereomer a)", "units-of-measure": "%", "result-value": 83}
{"compound": "CCCCCCCCCCCCCCCC(=O)N[C@@H](Cc1ccc(OCc2cc(OCC(F)(F)F)ccn2)cc1)C(=O)CP(=O)(O)O", "units-of-measure": "%", "result-value": 44}
{"compound": "CCCCCCCCCCCCCCCC(=O)N[C@H](Cc1ccc(OCc2ccccc2)cc1)C(=O)CP(=O)(O)O", "units-of-measure": "%", "result-value": 76}
{"compound": "CCCCCCCCCCCCCC(=O)N[C@H](Cc1ccc(OCc2ncc(C)c(OC)c2C)cc1)C(O)CP(=O)(O)O (single isomer, unassigned; diastereomer a)", "units-of-measure": "%", "result-value": 67}

I = CCCCCCCCCCCCCCCC(=O)N[C@@H](Cc1ccc(OCCC)cc1)C(O)CP(=O)(O)O (single isomer, unassigned; diastereomer a)
II = CCCCCCCCCCCCCCCC(=O)N[C@H](Cc1ccc(OCc2ncc(C)c(OC)c2C)cc1)C(O)CP(=O)(O)O (single isomer, unassigned; diastereomer b)
QUERY: # returns the entry with the larger residual activity; inputs I and II Which one? Tell me its label.
RESULT: I

====

molecular target: Autotaxin (Homo sapiens) (UniProt Q13822); assay: Inhibition of human recombinant ATX at 100 uM after 16 hrs; values are per cent of control
endpoint-label: residual activity (%)

{"molecule": "CCCCCCCCCCCCCCCC(=O)N[C@@H](Cc1ccc(OCc2ccccc2)cc1)C(=O)CP(=O)(O)O", "units-of-measure": "%", "residual activity": 61}
{"molecule": "CCCCCCCCCCCCCCCC(=O)N[C@H](Cc1ccc(OCC2CCCCC2)cc1)C(O)CP(=O)(O)O (single isomer, unassigned)", "units-of-measure": "%", "residual activity": 67}
{"molecule": "CCCCCCCCCCCCCCCC(=O)N[C@@H](Cc1ccc(OCc2ncc(C)c(OC)c2C)cc1)C(O)CP(=O)(O)O (stereo in doubt; f18)", "units-of-measure": "%", "residual activity": 8}
{"molecule": "CCCCCCCCCCCCCCCC(=O)N[C@H](Cc1ccc(OCCCCC)cc1)C(O)CP(=O)(O)O (single isomer, unassigned; diastereomer b)", "units-of-measure": "%", "residual activity": 70}

A = CCCCCCCCCCCCCCCC(=O)N[C@H](Cc1ccc(OC)cc1)C(O)CP(=O)(O)O (stereo in doubt; f20)
B = CCCCCCCCCCCCCCCC(=O)N[C@@H](Cc1ccc(OCc2cc(OCC(F)(F)F)ccn2)cc1)C(O)CP(=O)(O)O (single isomer, unassigned; diastereomer b)
QUERY: Smaller residual activity value? Options are A and B Which one? Tell me its label.
RESULT: B
(B: 56%, A: 82%)

====

target: Autotaxin (Homo sapiens) (UniProt Q13822); experiment: Inhibition of human recombinant ATX at 100 uM after 16 hrs; values are per cent of control
endpoint-label: residual activity (%)

{"compound": "CCCCCCCCCCCCCCCC(=O)N[C@@H](Cc1ccc(OCCC)cc1)C(=O)CP(=O)(O)O", "residual activity, %": 72}
{"compound": "CCCCCCCCCCCCCCCC(=O)N[C@H](Cc1ccc(OCc2ccccn2)cc1)C(O)CP(=O)(O)O (stereo in doubt; f9)", "residual activity, %": 60}
{"compound": "CCCCCCCCCCCCCCCCCC(=O)N[C@@H](Cc1ccc(OCc2ncc(C)c(OC)c2C)cc1)C(O)CP(=O)(O)O (single isomer, unassigned; diastereomer b)", "residual activity, %": 62}
{"compound": "CCCCCCCCCCCCCCCC(=O)N[C@@H](Cc1ccc(OCC2CCCCC2)cc1)C(O)CP(=O)(O)O (single isomer, unassigned; diastereomer b)", "residual activity, %": 80}
{"compound": "CCCCCCCCCCCCCCCC(=O)N[C@@H](Cc1ccc(OCCCCC)cc1)C(O)CP(=O)(O)O (single isomer, unassigned; diastereomer a)", "residual activity, %": 67}
{"compound": "CCCCCCCCCCCCCCCC(=O)N[C@H](Cc1ccc(OCc2cc(OCC(F)(F)F)ccn2)cc1)C(=O)CP(=O)(O)O", "residual activity, %": 57}

====

target: Autotaxin (Homo sapiens) (UniProt Q13822); assay: Inhibition of human recombinant ATX at 10 uM after 16 hrs; values are per cent of control
endpoint-label: residual activity (%)

{"compound": "CCCCCCCCCCCCCCCC(=O)N[C@@H](Cc1ccc(OCC2CCCCC2)cc1)C(O)CP(=O)(O)O (single isomer, unassigned; diastereomer b)", "units-of-measure": "%", "residual activity": 80}

A = CCCCCCCCCCCCCCCC(=O)N[C@@H](Cc1ccc(OCc2ncc(C)c(OC)c2C)cc1)C(O)CP(=O)(O)O (stereo in doubt; f18)
B = CCCCCCCCCCCCCCCC(=O)N[C@@H](Cc1ccc(OCc2cc(OCC(F)(F)F)ccn2)cc1)C(=O)CP(=O)(O)O
QUERY: Smaller residual activity value? Options are A and B Which one? Tell me its label.
RESULT: A
(A: 21%, B: 68%)

====

target: Autotaxin (Homo sapiens) (UniProt Q13822); test: Inhibition of human recombinant ATX at 1 uM after 16 hrs; values are per cent of control
endpoint-label: residual activity (%)

Before answering, review these 3 worked examples.
{"molecule": "CCCCCCCCCCCCCCCC(=O)N[C@H](Cc1ccc(OCc2ccccc2)cc1)C(O)CP(=O)(O)O (single isomer, unassigned; diastereomer b)", "measured-target": "Autotaxin (Homo sapiens) (UniProt Q13822)", "residual activity, %": 80}
{"molecule": "CCCCCCCCCCCCCCCC(=O)N[C@H](Cc1ccc(OCc2ncc(C)c(OC)c2C)cc1)C(O)CP(=O)(O)O (single isomer, unassigned; diastereomer b)", "measured-target": "Autotaxin (Homo sapiens) (UniProt Q13822)", "residual activity, %": 69}
{"molecule": "CCCCCCCCCCCCCCCC(=O)N[C@H](Cc1ccc(OCc2ccccc2)cc1)C(O)CP(=O)(O)O (single isomer, unassigned; diastereomer a)", "measured-target": "Autotaxin (Homo sapiens) (UniProt Q13822)", "residual activity, %": 83}

a = CCCCCCCCCCCCCCCC(=O)N[C@@H](Cc1ccc(OCc2ncc(C)c(OC)c2C)cc1)C(O)CP(=O)(O)O (stereo in doubt; f18)
b = CCCCCCCCCCCCCCCC(=O)N[C@@H](Cc1ccc(OCc2ncc(C)c(OC)c2C)cc1)C(O)CP(=O)(O)O (stereo in doubt; f17)
QUERY: Smaller residual activity value? Options are a and b Which one? Tell me its label.
RESULT: b
(b: 27%, a: 63%)

====

target: Autotaxin (Homo sapiens); test: Inhibition of human recombinant ATX at 10 uM after 16 hrs; values are per cent of control
endpoint-label: residual activity (%)

Before answering, review these 4 worked examples.
{"compound": "CCCCCCCCCCCCCCCC(=O)N[C@@H](Cc1ccc(OC)cc1)C(O)CP(=O)(O)O (stereo in doubt; f22)", "endpoint-label": "residual activity", "units-of-measure": "%", "result-value": 80}
{"compound": "CCCCCCCCCCCCCCCCCC(=O)N[C@@H](Cc1ccc(OCc2ncc(C)c(OC)c2C)cc1)C(O)CP(=O)(O)O (stereo in doubt; f39)", "endpoint-label": "residual activity", "units-of-measure": "%", "result-value": 91}
{"compound": "CCCCCCCCCCCCCCCC(=O)N[C@@H](Cc1ccc(OCCC(C)C)cc1)C(O)CP(=O)(O)O (stereo in doubt; f34)", "endpoint-label": "residual activity", "units-of-measure": "%", "result-value": 101}
{"compound": "CCCCCCCCCCCCCCCC(=O)N[C@@H](Cc1ccc(OCCCCC)cc1)C(=O)CP(=O)(O)O", "endpoint-label": "residual activity", "units-of-measure": "%", "result-value": 83}

a = CCCCCCCCCCCCCCCC(=O)N[C@H](Cc1ccc(OCCC(C)C)cc1)C(O)CP(=O)(O)O (single isomer, unassigned; diastereomer a)
b = CCCCCCCCCCCCCCCC(=O)N[C@@H](Cc1ccc(OC)cc1)C(O)CP(=O)(O)O (single isomer, unassigned; diastereomer a)
QUERY: Smaller residual activity value? Options are a and b Which one? Tell me its label.
RESULT: b
